Reference source for all entries: patent US9388140B2

Target: human kinase Mps-1 (Homo sapiens (Human))
Assay: Mps-1 kinase assay (TR-FRET)
Assay type: biochemical
Settings: N-terminally GST-tagged human full length recombinant Mps-1; 10 μM ATP; 1 μM biotinylated peptide substrate; read-out: Mps1 IC50
What pIC50 was measured for each of the following?
Numbers only, as −log10 of the molar value.

Worked cases, answers included:
[
  {
    "compound": "CNC(=O)c1ccc(-c2cc(NCCC(F)(F)F)c3ncn(-c4ccc(C(=O)NC5CC5)c(C)c4)c3c2)cc1C [Example 52]",
    "data-value": 9.05
  },
  {
    "compound": "CCNC(=O)c1ccc(-n2cnc3c(NCC4CCOCC4)cc(Oc4ccc(OC)c(SC)c4)cc32)cc1C [Example 113B]",
    "data-value": 7.27
  },
  {
    "compound": "Cc1cc(-n2cnc3c(NCCC(F)(F)F)cc(Oc4cccc(F)c4)cc32)ccc1C(=O)NC1(C#N)CC1 [Example 13]",
    "data-value": 7.31
  }
]

Next up:
Provide measured pIC50 value, entry: Cc1cc(-n2cnc3c(NCCC(F)(F)F)cc(Nc4ccccc4O)cc32)ccc1C(=O)NC1CC1 [Example 82] 8.41

---

What IC50 was measured for each of the following?
Target: human kinase Mps-1 (Homo sapiens (Human), UniProt P33981)
Sequence (P33981 whole entry): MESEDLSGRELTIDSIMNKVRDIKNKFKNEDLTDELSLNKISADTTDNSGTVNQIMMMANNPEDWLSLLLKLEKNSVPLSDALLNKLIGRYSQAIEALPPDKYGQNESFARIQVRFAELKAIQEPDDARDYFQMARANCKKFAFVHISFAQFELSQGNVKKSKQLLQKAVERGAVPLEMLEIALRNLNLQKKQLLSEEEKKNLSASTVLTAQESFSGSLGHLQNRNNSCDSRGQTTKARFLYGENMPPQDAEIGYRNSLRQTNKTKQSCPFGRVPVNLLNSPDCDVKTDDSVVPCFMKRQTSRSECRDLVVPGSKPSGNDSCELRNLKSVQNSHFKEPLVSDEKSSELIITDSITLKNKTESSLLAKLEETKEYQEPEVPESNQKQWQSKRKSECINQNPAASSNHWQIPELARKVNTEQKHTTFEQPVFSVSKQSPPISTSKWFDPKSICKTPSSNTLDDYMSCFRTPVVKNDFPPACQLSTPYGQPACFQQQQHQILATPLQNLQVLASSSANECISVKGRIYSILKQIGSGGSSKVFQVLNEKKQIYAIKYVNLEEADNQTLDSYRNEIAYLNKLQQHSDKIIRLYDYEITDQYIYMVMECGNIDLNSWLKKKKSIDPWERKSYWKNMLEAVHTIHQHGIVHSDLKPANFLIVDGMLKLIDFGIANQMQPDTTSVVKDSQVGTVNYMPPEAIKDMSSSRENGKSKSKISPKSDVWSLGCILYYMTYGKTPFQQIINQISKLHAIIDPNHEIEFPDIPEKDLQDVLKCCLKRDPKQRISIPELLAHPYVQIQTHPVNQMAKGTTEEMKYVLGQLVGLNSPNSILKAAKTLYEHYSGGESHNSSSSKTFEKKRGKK
Assay: Mps-1 kinase assay (TR-FRET)
Type: biochemical
Settings: N-terminally GST-tagged human full length recombinant Mps-1; 10 μM ATP; 1 μM biotinylated peptide substrate; read-out: Mps1 IC50
Numbers only, in nM.

Worked cases, answers included:
[
  {
    "molecular-string": "CCNC(=O)c1ccc(-n2cnc3c(NCCC(F)(F)F)cc(Oc4cccc(F)c4OC)cc32)cc1C",
    "IC50 / nM": 28.5
  },
  {
    "molecular-string": "CCNC(=O)c1ccc(-n2cnc3c(NCC4CCOCC4)cc(Oc4ccc(OC)c(F)c4)cc32)cc1C",
    "IC50 / nM": 4
  }
]

Quote IC50 with test system human kinase Mps-1 (Homo sapiens (Human), UniProt P33981) for `CNC(=O)c1ccc(-n2cnc3c(NCCC(F)(F)F)cc(Oc4cccc(F)c4F)cc32)cc1C` 1

---

Molecular target: UniProt:P33981
Test: Mps-1 kinase assay (TR-FRET)
Type: biochemical
Settings: N-terminally GST-tagged human full length recombinant Mps-1; 10 μM ATP; 1 μM biotinylated peptide substrate; read-out: Mps1 IC50
Description: The human kinase Mps-1 phosphorylates a biotinylated substrate peptide. Detection of the phosphorylated product is achieved by time-resolved fluorescence resonance energy transfer (TR-FRET) from Europium-labelled anti-phospho-Serine/Threonine antibody as donor to streptavidin labelled with cross-linked allophycocyanin (SA-XLent) as acceptor. Compounds are tested for their inhibition of the kinase activity. […]
measurement-name: pIC50
Numbers only, as −log10 of the molar value.

Worked cases, answers included:
[
  {
    "molecule": "CNC(=O)c1ccc(-n2cnc3c(NCCC(F)(F)F)cc(Oc4cccc(OC)c4)cc32)cc1C [Example 68]",
    "data-value": 8.06
  },
  {
    "molecule": "Cc1cc(-n2cnc3c(NCC4CCOCC4)cc(Oc4ccc(F)c(F)c4)cc32)ccc1C(=O)NC1CC1 [Example 17]",
    "data-value": 8.96
  },
  {
    "molecule": "Cc1cc(-n2cnc3c(NCCC(F)(F)F)cc(Oc4ccc(O)c(F)c4)cc32)ccc1C(=O)NC1CC1 [Example 83]",
    "data-value": 9.15
  }
]

State recorded pIC50 for all listed molecules.
1. CCNC(=O)c1ccc(-n2cnc3c(NCCC(F)(F)F)cc(Oc4ccc(OC)cc4F)cc32)cc1C [Example 89]
2. CCNC(=O)c1ccc(-n2cnc3c(NCCC(F)(F)F)cc(Oc4ccc(OC)c(F)c4)cc32)cc1C [Example 34]
3. CNC(=O)c1ccc(-n2cnc3c(NCCC(F)(F)F)cc(Oc4ccc(O)c(F)c4)cc32)cc1C [Example 99]
4. COc1cccc(Nc2cc(NCCC(F)(F)F)c3ncn(-c4ccc(C(=O)NC5CC5)c(C)c4)c3c2)c1C [Example 65]
5. Cc1cc(-n2cnc3c(NCCC(F)(F)F)cc(Oc4ccc(OCc5ccccc5)cc4)cc32)ccc1C(=O)NC1CC1 [Example 45]

1: 7.97; 2: 8.24; 3: 8.62; 4: 8.55; 5: 8.17

State recorded pIC50 for all listed molecules.
1. Cc1cc(-n2cnc3c(NCCC(F)(F)F)cc(Oc4ccc(Cl)c(F)c4)cc32)ccc1C(=O)NC1CC1 [Example 28]
2. Cc1cc(-n2cnc3c(NCCC(F)(F)F)cc(Oc4ccc(O)cc4F)cc32)ccc1C(=O)NC1CC1 [Example 90]
3. CCNC(=O)c1ccc(-n2cnc3c(NCC4CCOCC4)cc(Oc4ccc(O)cc4F)cc32)cc1C [Example 117A]
4. Cc1cc(-n2cnc3c(NCCC(F)(F)F)cc(Oc4ccc(F)c(F)c4)cc32)ccc1C(=O)NC1CC1 [Example 27]
5. COc1c(F)cccc1Oc1cc(NCCC(F)(F)F)c2ncn(-c3ccc(C(=O)NC4CC4)c(C)c3)c2c1 [Example 57]
6. Cc1cc(-n2cnc3c(NCCC(F)(F)F)cc(Oc4cccc(C(F)F)c4)cc32)ccc1C(=O)NC1CC1 [Example 109]

[8.51, 8.96, 8.17, 8.85, 8.17, 8.55]

State recorded pIC50 for all listed molecules.
1. Cc1cc(-c2cc(NCCC(F)(F)F)c3ncn(-c4ccc(C(=O)NC5CC5)c(C)c4)c3c2)ccc1C(=O)NC1CC1 [Example 51]
2. Cc1ccc(F)cc1Nc1cc(NCCC(F)(F)F)c2ncn(-c3ccc(C(=O)NC4CC4)c(C)c3)c2c1 [Example 3]
3. Cc1cc(-n2cnc3c(NCCC(F)(F)F)cc(Oc4ccc(O)cc4)cc32)ccc1C(=O)NC1CC1 [Example 50]
4. CCNC(=O)c1ccc(-n2cnc3c(NCCC(F)(F)F)cc(Oc4ccc(O)cc4)cc32)cc1C [Example 49]
5. Cc1cc(-n2cnc3c(NCC4CCOCC4)cc(Oc4cccc(F)c4F)cc32)ccc1C(=O)NC1CC1 [Example 25]
6. CCNC(=O)c1ccc(-n2cnc3c(NCCC(F)(F)F)cc(Oc4ccc(OCc5ccccc5)cc4)cc32)cc1C [Example 46]

1. 9.05
2. 8.82
3. 8.96
4. 8.26
5. 9.70
6. 7.00
